Target: T1, Bicoid DBD-GST (Bcd) (UniProt P09081 83-170)
T1 sequence: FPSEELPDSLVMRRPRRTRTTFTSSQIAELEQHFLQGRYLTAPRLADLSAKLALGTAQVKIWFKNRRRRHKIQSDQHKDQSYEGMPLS
Test: competitive fluorescence anisotropy (HiP-FA); mean of replicates 3.19, 4.8725; HiP-FA: 33 mM phosphate pH 7.0, 90 mM NaCl, 0.01% Tween 20, 0.1 mM DTT, 0.5% agarose; conventional titration and EMSA: 20 mM Tris-acetate pH 7.0, 50 nM (sic) NaCl, 0.01% Tween-20, 0.1 mM DTT
Settings: protein: recombinant; tags: N-terminal GST; blunt, G:G mismatch at position 6
value-type: pKd
Note on pKd: it is the negative log10 of concentration, concentration in mol/L.

Entry Bcd competitor 29 (C10T) (dsDNA) DNA 1: TCGACGGTAATCCTTA DNA 2: TAAGGATTACGGTCGA — recorded pKd = 8.39

The reported measurements were obtained from paper PMC5913336.
